All figures here come from ChEMBL document CHEMBL1201862.

- subject-of-test: Prothrombin (Bos taurus)
- assay-method-text: thrombin inhibition, dose response, biochemical, fluorescence polarization, uHTS hits (AID 602369)
- Type: functional
Active and inactive are the calls of the source. Cut-off read from the data, not from the text of the source: actives have a measured IC50 and inactives only a lower limit.
Please reply with one of these outcomes: active, inactive

{"given-smiles": "COc1ccc(Cl)cc1NC(=O)CCS(=O)(=O)c1ccc(Br)cc1", "subject-of-test": "Prothrombin (Bos taurus)", "assigned-category": "inactive"}
{"given-smiles": "O=C(CCCN1C(=O)/C(=C/c2ccc3c(c2)OCO3)SC1=S)Nc1ccc(C(=O)O)cc1", "subject-of-test": "Prothrombin (Bos taurus)", "assigned-category": "active"}
{"given-smiles": "CN(C)c1ccc(/C=C/C=C2/SC(=S)N(c3ccccc3)C2=O)cc1", "subject-of-test": "Prothrombin (Bos taurus)", "assigned-category": "active"}

**Query** Tell me the recorded outcome of this test for CCS(=O)(=O)C1=NN2C(=N)/C(=C\c3ccc(SCc4ccco4)o3)C(=O)N=C2S1 .
**Result** active
